Experiment: Cytotoxicity against African green monkey Vero cells assessed as inhibition of cell growth after 24 hrs by resazurin redox dye based fluorimetric microtiter method
Conditions: chlorocebus sabaeus
Collected CC50 at 24 h values appear next to each entry.
measure: CC50 at 24 h

- compound: "CCN(CC)CCCN1CC(=O)Nc2cc([N+](=O)[O-])ccc21.Cl"
  measure: "CC50 at 24 h"
  result: "> 300 µM"
- compound: "CN(C)CCN1CC(=O)N(C)c2cc([N+](=O)[O-])ccc21"
  measure: "CC50 at 24 h"
  result: "648 µM"
- compound: "Cc1ncc([N+](=O)[O-])n1CCO"
  measure: "CC50 at 24 h"
  result: "> 600 µM"
- compound: "CN(C)CCN1CC(=O)Nc2cc([N+](=O)[O-])ccc21.Cl"
  measure: "CC50 at 24 h"
  result: "> 300 µM"
- compound: "Cn1c(=O)c(=O)n(CCCCCCCl)c2ccc([N+](=O)[O-])cc21"
  measure: "CC50 at 24 h"
  result: "> 300 µM"
- compound: "O=C1Nc2cc([N+](=O)[O-])ccc2N2CCCOC12 (configuration not stated)"
  measure: "CC50 at 24 h"
  result: "> 300 µM"
- compound: "Cn1c(=O)c(=O)n(CCCCCCl)c2ccc([N+](=O)[O-])cc21"
  measure: "CC50 at 24 h"
  result: "> 300 µM"
- compound: "Cl.O=C1CN(CCN2CCCCC2)c2ccc([N+](=O)[O-])cc2N1"
  measure: "CC50 at 24 h"
  result: "> 300 µM"
- compound: "Cl.O=C1CN(CCCN2CCCCC2)c2ccc([N+](=O)[O-])cc2N1"
  measure: "CC50 at 24 h"
  result: "> 300 µM"
- compound: "CN1C(=O)CN(CCN2CCCCC2)c2ccc([N+](=O)[O-])cc21"
  measure: "CC50 at 24 h"
  result: "> 300 µM"
- compound: "CCN(CC)CCCN1CC(=O)N(C)c2cc([N+](=O)[O-])ccc21.Cl"
  measure: "CC50 at 24 h"
  result: "1240 µM"
- compound: "CN1C(=O)CN(CCCO)c2ccc([N+](=O)[O-])cc21"
  measure: "CC50 at 24 h"
  result: "> 300 µM"
